ASSAY PROCEDURE: in vitro
PROTOCOL CONDITIONS: rat, liver microsomes
Description: Metabolic stability in rat liver microsome assessed as half-life at 1 uM by HPLC analysis
ENDPOINT: half-life at 1 µM (min)
Give the number; min is assumed, so skip it.

Prompt: Form field: reported half-life at 1 µM of O=C1C[C@@H](c2ccc(O)c(O)c2)Oc2cc(O)cc(O)c21 [ERIODICTYOL]
Response: 20.7

* * *

ASSAY PROCEDURE: Binding affinity to GFP-tagged FTO Glu234 mutant (unknown origin) assessed as dissociation constant by microscale thermophoresis analysis
ENDPOINT: Kd

Prompt: Return reported Kd; argument: `O=C1C[C@@H](c2ccc(O)c(O)c2)Oc2cc(O)cc(O)c21`
Response: 186 µM

Values compiled from ChEMBL document CHEMBL6109136.
